assay_protocol: Dyeability test of second solution containing a dye on goat hair
Set-up: key: ⊚: Deeply dyed and an original white color of the goat hair is not prominent; ◯: Dyed to a degree that an original white color of the goat hair is not prominent; Δ: Dyed, but prominent in an original white color of the goat hair; X: Only an original white color of the goat hair
test_conditions: first solution 30° C. 15 minutes, then second solution with 0.2% dye
Method: To approximately 2 g of goat hair, approximately 2 g of a first solution of a permanent waving composition was applied, and the hair was allowed to stand in a constant temperature bath at 30° C. for 15 minutes. […] After drying the hair, dyeability for the hair was evaluated. […]
recorded_endpoint: Dyeability

O=[N+]([O-])c1cc(N(CCO)CCO)ccc1NCCO ◯
O=[N+]([O-])c1ccccc1NCCO ◯
O=S(=O)([O-])c1ccc(N=Nc2c(O)ccc3ccccc23)cc1.[Na+] Δ
